System: co-cultures of HepG2 and M1-THP-1 cells
experiment-summary: MTT cytotoxicity in direct co-cultures of HepG2 and M1-THP-1 macrophages
Type: cell-based
test-conditions: Homo sapiens, HepG2, 24 h, Co-culture 1.2 (M1:HepG2), 24 h exposure
Protocol: THP-1 cells were differentiated to macrophages via incubation with phorbol-12-myrsitate 13-acetate (PMA, 20 or 50 ng/mL) for 72 h. After differentiation, THP-1 cells became adherent with typical macrophage morphology. […] Cytotoxicity was assessed by means of the tetrazolium reduction colorimetric assay (MTT test) as previously described in detail.
Form field: pIC50 (one value per entry).
Give only the number. pIC50 is defined as minus log10 of concentration in molar units.

# compound, pIC50
rows = [
    ("N[C@@H]1[C@H]2CN(c3nc4c(cc3F)c(=O)c(C(=O)O)cn4-c3ccc(F)cc3F)C[C@@H]12", 4.13),
]

Lookup: Give its pIC50 value. Item: Cc1c(C)c2c(c(C)c1O)CCC(C)(COc1ccc(CC3SC(=O)NC3=O)cc1)O2 (stereo not shown)
Found: 3.73
